Reference for the values: paper PMC8690038

Target: WT (Corynebacterium glutamicum, UniProt P26512)
Construct: gene lysC; recombinant from pET-28a-AK, His Trap purified, about 48 kDa
Sequence (P26512 1-421): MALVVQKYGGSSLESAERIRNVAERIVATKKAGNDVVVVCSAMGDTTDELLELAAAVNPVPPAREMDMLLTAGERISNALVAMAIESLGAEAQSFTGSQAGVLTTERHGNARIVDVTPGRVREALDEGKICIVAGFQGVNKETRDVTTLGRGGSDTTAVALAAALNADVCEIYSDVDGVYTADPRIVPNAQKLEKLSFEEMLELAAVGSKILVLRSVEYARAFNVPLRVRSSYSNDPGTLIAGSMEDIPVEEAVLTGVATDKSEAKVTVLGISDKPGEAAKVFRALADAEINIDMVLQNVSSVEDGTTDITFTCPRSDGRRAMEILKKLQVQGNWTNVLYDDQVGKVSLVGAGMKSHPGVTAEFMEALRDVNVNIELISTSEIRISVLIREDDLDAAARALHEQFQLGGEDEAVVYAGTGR
Test: Microscale thermophoresis of NT-647-NHS-labelled AK (40 nM) with diluted Lys in the enzyme activity measurement system, 28 °C, Monolith NT.115.
Format: binding
Conditions: read-out: K d (mM) Lys
observation.type: Kd (mM)

>>> value_measured("NCCCC[C@H](N)C(=O)O")
1.32
